This listing pairs compounds with measured Herbicidal damage score, ZEAMX.
tested on: a variety of test species; experiment: Post-emergence herbicidal activity (Example 8b, Table 3); assay type: in vivo; conditions: Zea mays; application post-emergence; rate 1000 g/ha; evaluated after 13 days; scale 0-5
assay-metric: Herbicidal damage score, ZEAMX

INSERT INTO results (compound, assay_metric, numeric_result) VALUES
  ('CCC1=C(Cl)C(=O)N(c2ccn(C)n2)C1O (stereo not drawn)', 'Herbicidal damage score, ZEAMX', 0),
  ('CCn1nc(N2C(=O)C(Cl)=C(C)C2O)c2c1C(C)(C)CC2 (stereo not drawn) [Compound E2]', 'Herbicidal damage score, ZEAMX', 5),
  ('CCC1CCCn2nc(N3C(=O)C(Cl)=C(C)C3O)cc21 (mixture of isomers) [Compound G5]', 'Herbicidal damage score, ZEAMX', 5),
  ('COC1=C(C)C(O)N(c2cc(C(C)(C)C)n(C)n2)C1=O (stereo not drawn) [Compound H1]', 'Herbicidal damage score, ZEAMX', 4),
  ('CC1=C(Cl)C(=O)N(c2cc(C(C)(C)C)n(C)n2)C1OC(=O)Oc1ccccc1 (stereo not drawn) [Compound F3]', 'Herbicidal damage score, ZEAMX', 5),
  ('CC1=C(Cl)C(=O)N(c2cc(C(C)C)n(C)n2)C1O (stereo not drawn) [Compound B5]', 'Herbicidal damage score, ZEAMX', 5),
  ('CC1=C(Cl)C(=O)N(c2cc(C(F)(F)C(F)(F)F)n(C)n2)C1O (stereo not drawn) [Compound B13]', 'Herbicidal damage score, ZEAMX', 3),
  ('CC1=C(Cl)C(=O)N(c2cc(S(C)(=O)=O)n(C)n2)C1O (stereo not drawn)', 'Herbicidal damage score, ZEAMX', 5),
  ('C/C=C/c1cc(N2C(=O)C(Cl)=C(C)C2O)nn1C (stereo not drawn)', 'Herbicidal damage score, ZEAMX', 0);

* * *

tested on: a variety of test species; assay: Pre-emergence herbicidal activity (Example 8a, Table 2); type: in vivo; parameters: key: 0 = no damage to plant, 5 = total damage to plant; conditions: SETFA; application pre-emergence; rate 1000 g/ha; evaluated after 13 days
This listing pairs compounds with measured Pre-emergence herbicidal activity, damage score SETFA.
assay-metric: Pre-emergence herbicidal activity, damage score SETFA

INSERT INTO results (compound, numeric_result) VALUES
  ('COC1=C(OC)C(O)N(c2cc3n(n2)CCC3(C)C)C1=O (centres unmarked)', 5),
  ('CC1=C(Cl)C(=O)N(c2cc(/C=C/C(C)(C)C)n(C)n2)C1O (centres unmarked) [Compound B17]', 3),
  ('CC1=C(Cl)C(=O)N(c2cc(C)n(C(F)F)n2)C1O (centres unmarked)', 3),
  ('CC1=C(Cl)C(=O)N(c2cc(C(C)(F)C(C)(C)C)n(C)n2)C1O (mixture of isomers)', 3),
  ('CC#Cc1cc(N2C(=O)C(Cl)=C(C)C2O)nn1C (centres unmarked)', 3);

* * *

test system: a variety of test species; assay: Pre-emergence herbicidal activity (Example 8a, Table 2); assay type: in vivo; set-up: key: 0 = no damage to plant, 5 = total damage to plant; conditions: SETFA; application pre-emergence; rate 1000 g/ha; evaluated after 13 days
assay-metric: Pre-emergence herbicidal activity, damage score SETFA

INSERT INTO results (molecule, numeric_result) VALUES
  ('CC1=C(Cl)C(=O)N(c2cc(C(F)(F)F)n(C)n2)C1O (stereo not drawn)', 4),
  ('CC1=C(Cl)C(=O)N(c2cc(I)n(C)n2)C1O (stereo not drawn)', 5),
  ('CC1=C(Cl)C(=O)N(c2cc(C)[nH]n2)C1O (stereo not drawn)', 4),
  ('CC1=C(Cl)C(=O)N(c2cc3n(n2)CCC3C)C1O (mixture of isomers) [Compound G6]', 4),
  ('CC1=C(Cl)C(=O)N(c2cc(C3=CCC(C)(C)CC3)n(C)n2)C1O (stereo not drawn)', 2),
  ('CC1=C(Cl)C(=O)N(c2cc(Cl)n(C)n2)C1O (stereo not drawn) [Compound B18]', 5),
  ('CC1=C(Cl)C(=O)N(c2ccn(C)n2)C1O (stereo not drawn)', 4),
  ('CC1=C(Cl)C(=O)N(c2cc3n(n2)CCSC3(C)C)C1O (stereo not drawn)', 4),
  ('CC1=C(Br)C(=O)N(c2cc3n(n2)CCSC3(C)C)C1O (stereo not drawn)', 2),
  ('CCn1nc(N2C(=O)C(Cl)=C(C)C2O)c2c1C(C)(C)CC2 (stereo not drawn) [Compound E1]', 4),
  ('CC1=C(Cl)C(=O)N(c2cc(C(F)(F)C(F)(F)F)n(C)n2)C1O (stereo not drawn) [Compound B13]', 5),
  ('CCO/C=C\c1cc(N2C(=O)C(Cl)=C(C)C2O)nn1C (stereo not drawn)', 0);
